Origin of values: patent US20210139484A1

- tested-target: human HPK1 protein (Homo sapiens, UniProt Q92918)
- Construct: recombinant human HPK1 protein (a.a. 1-346) was expressed in Sf9 insect cells; GST (N); purchased Signalchem M23-11G; host or cells: Sf9 insect cells (baculovirus)
- Sequence (Q92918 1-346): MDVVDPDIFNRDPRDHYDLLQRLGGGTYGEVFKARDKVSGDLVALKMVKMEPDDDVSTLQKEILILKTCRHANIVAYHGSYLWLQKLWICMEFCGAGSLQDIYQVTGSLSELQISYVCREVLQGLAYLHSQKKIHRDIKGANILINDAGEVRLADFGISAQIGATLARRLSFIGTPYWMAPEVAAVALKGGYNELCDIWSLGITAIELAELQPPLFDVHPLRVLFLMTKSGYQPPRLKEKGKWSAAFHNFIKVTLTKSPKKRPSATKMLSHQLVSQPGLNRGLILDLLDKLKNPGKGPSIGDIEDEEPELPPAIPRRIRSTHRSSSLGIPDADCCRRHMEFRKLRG
- test-name: Human HPK1 protein TR-FRET assay
- Format: biochemical
- study-conditions: 1 mM ATP, Table 19
- Protocol: Exemplary compounds from the above Examples were tested for ability to inhibit HPK1 using a human HPK1 protein TR-FRET Assay. Assay procedures and results are described below. […] The fluorescence resonance energy transfer (FRET) signal was measured on an Envision plate reader: Excitation filter=340 nm, APC emission=665 nm, Europium emission=615 nm, dichroic mirror=D400/D630, delay time=100 μs, and integration time=200 μs. […]
pIC50: −log10 of the molar value.
The following compounds are listed with their measured pIC50 values.

compound | pIC50
CCN1CCN(Cc2ccc(NC(=O)N3CCc4ccc(Oc5ncnn6cccc56)cc4C3)cc2C(F)(F)F)CC1 [compound 1] | > 6.30

Specify the recorded pIC50 for CCN1CCN(Cc2ccc(NC(=O)N3Cc4cc(Oc5ccnc6[nH]c(C)cc56)cnc4C(C)C3)cc2C(F)(F)F)CC1 (single isomer, unassigned) [VII-20] , system: human HPK1 protein (Homo sapiens, UniProt Q92918).
> 6.30

Enter measured pIC50, system human HPK1 protein (Homo sapiens, UniProt Q92918), for the compound shown: CCN1CCN(Cc2ccc(NC(=O)N3CCc4ccc(Oc5ccnn6cc(-c7cnn(C)c7)cc56)cc4[C@@H]3C)cc2C(F)(F)F)CC1 [V-7]
> 6.30

Tell me its pIC50 on human HPK1 protein (Homo sapiens, UniProt Q92918): CCN1CCN(Cc2ccc(NC(=O)N3CCc4ccc(Nc5ncnn6cccc56)cc4C3)cc2C(F)(F)F)CC1 [compound 11]
5.30 to 6.30

Send back human HPK1 protein (Homo sapiens, UniProt Q92918) pIC50 of CCN1CCN(Cc2ccc(NC(=O)N3CCc4ncc(Oc5ccnc6[nH]ncc56)cc4C3C)cc2C(F)(F)F)CC1 (single isomer, unassigned) [VIII-4] only.
5.30 to 6.30

Please report pIC50 with human HPK1 protein (Homo sapiens, UniProt Q92918) for item CCN1CCN(Cc2ccc(NC(=O)N3CCc4ccc(Oc5cc(NC(=O)C6CC6)ncn5)cc4C3)cc2C(F)(F)F)CC1 [II-10] .
> 6.30

====

- tested-target: human HPK1 protein (Homo sapiens)
- Construct: recombinant human HPK1 protein (a.a. 1-346) was expressed in Sf9 insect cells; GST (N); purchased Signalchem M23-11G; host or cells: Sf9 insect cells (baculovirus)
- test-name: Human HPK1 protein TR-FRET assay
- Assay type: biochemical
- study-conditions: 1 mM ATP, Table 19
property-label: IC50

compound | IC50
CCC1CN(C(=O)Nc2ccc(CN3CCN(CC)CC3)c(C(F)(F)F)c2)Cc2cc(Oc3ccnc4[nH]c(C)cc34)cnc21 (single isomer, unassigned) [VII-23] | < 500 nM
C[C@H]1c2cc(Oc3ccnc4[nH]ccc34)ccc2CCN1C(=O)Nc1ccc(CN2CCN(C3COC3)CC2)c(C(F)(F)F)c1 | 500 to 5000 nM
CCN1CCN(Cc2ccc(NC(=O)N3CCc4ccc(Oc5ccnc6c5CCN6)cc4C3)cc2C(F)(F)F)CC1 | < 500 nM
Cc1cc2c(Oc3ccc4c(c3)[C@H](C)N(C(=O)Nc3cnc(OC5CCCN(C)C5)c(C(F)(F)F)c3)CC4)ccnc2[nH]1 (mixture of isomers) | 500 to 5000 nM
CCN1CCN(Cc2ccc(NC(=O)N3Cc4cc(Oc5ccnc6[nH]c(C)cc56)c(F)cc4C(C)C3)cc2C(F)(F)F)CC1 (stereo not drawn) [IV-28] | < 500 nM

Next up:
For Cc1cc2c(Oc3ccc4c(c3)[C@H](C)N(C(=O)Nc3ccc5c(N6CCN(C)CC6)cccc5c3)CC4)ccnc2[nH]1 , write its IC50.
< 500 nM
